TGT: Replicase polyprotein 1ab (Severe acute respiratory syndrome coronavirus 2, UniProt P0DTD1)
REPORTED ENDPOINT: IC50 (nM)
Express it in nM; write the number only.

Worked cases, answers included:
LINE NOTATION	TEST RESULT
CNc1ncnc2c1ncn2[C@@H]1O[C@H](CNS(=O)(=O)c2ccc(OC)c([N+](=O)[O-])c2)[C@@H](O)[C@H]1O	573
CCN(C[C@H]1O[C@@H](n2cnc3c(NC)ncnc32)[C@H](O)[C@@H]1O)S(=O)(=O)c1ccc(C)c([N+](=O)[O-])c1	187
CCN(C[C@H]1O[C@@H](n2cnc3c(NC)ncnc32)[C@H](O)[C@@H]1O)S(=O)(=O)c1ccc(OC)c([N+](=O)[O-])c1	274
COc1ccc(S(=O)(=O)N(C)C[C@H]2O[C@@H](n3cc(C#Cc4cnc5ccccc5c4)c4c(N)ncnc43)[C@H](O)[C@@H]2O)cc1[N+](=O)[O-]	1.3
CCN(C[C@H]1O[C@@H](n2cnc3c(NC)ncnc32)[C@H](O)[C@@H]1O)S(=O)(=O)c1ccc(Br)c([N+](=O)[O-])c1	383

Challenge: Fill in the blank: the reported IC50 of Cc1ccc(S(=O)(=O)N(C)C[C@H]2O[C@@H](n3cc(C#Cc4ccccc4)c4c(N)ncnc43)[C@H](O)[C@@H]2O)cc1Cl is ____.
Response given: 25.6

Challenge: What measured IC50 goes with COc1ccc(S(=O)(=O)N(C)C[C@H]2O[C@@H](n3cc(C#Cc4cnc5ccccc5c4)c4c(N)ncnc43)[C@H](O)[C@@H]2O)cc1C#N ?
Response given: 0.72

Challenge: Name the reported IC50 value associated with the molecule CNc1ncnc2c1ncn2[C@@H]1O[C@H](CNS(=O)(=O)c2ccc(C)c(Cl)c2)[C@@H](O)[C@H]1O
Response given: 2180

Challenge: Fill in the blank: the reported IC50 of CNc1ncnc2c1ncn2[C@@H]1O[C@H](CNS(=O)(=O)c2ccc(Br)c([N+](=O)[O-])c2)[C@@H](O)[C@H]1O is ____.
Response given: 3410

Challenge: Would you kindly share the measured IC50 for COc1ccc(S(=O)(=O)N(C)C[C@H]2O[C@@H](n3cc(C#Cc4ccccc4)c4c(N)ncnc43)[C@H](O)[C@@H]2O)cc1C#N ?
Response given: 1.2

====

Parameter: inhibition. Scope: all listed entries.
TGT: Nonstructural protein 5 (Dengue virus)
STUDY CONDITIONS: dengue virus type 3; dose 5.0 µM, time 30.0 min

LINE NOTATION	inhibition
Cc1ccc(S(=O)(=O)N(C)C[C@H]2O[C@@H](n3cc(C#Cc4ccccc4)c4c(N)ncnc43)[C@H](O)[C@@H]2O)cc1Cl	94.8%
CCN(C[C@H]1O[C@@H](n2cnc3c(=O)[nH]cnc32)[C@H](O)[C@@H]1O)S(=O)(=O)c1ccc(OC)c([N+](=O)[O-])c1	86.4%

Challenge: Record request: inhibition value, item Cc1ccc(S(=O)(=O)N(C)C[C@H]2O[C@@H](n3cc(C#Cc4ccccc4)c4c(N)ncnc43)[C@H](O)[C@@H]2O)cc1[N+](=O)[O-]
Response given: 93.3%

====

TGT: Replicase polyprotein 1ab (Severe acute respiratory syndrome coronavirus 2)
REPORTED ENDPOINT: IC50 (nM)
Quick reminder: number only, in nM, skip the unit.

LINE NOTATION	IC50 (nM)
Cc1ccc(S(=O)(=O)N(C)C[C@H]2O[C@@H](n3cc(C#Cc4ccccc4)c4c(N)ncnc43)[C@H](O)[C@@H]2O)cc1[N+](=O)[O-]	9.5

Challenge: // lookup IC50 for Cc1ccc(S(=O)(=O)N(C)C[C@H]2O[C@@H](n3cc(C#Cc4cnc5ccccc5c4)c4c(N)ncnc43)[C@H](O)[C@@H]2O)cc1[N+](=O)[O-]
Response given: 2.1

Challenge: Name the reported IC50 value associated with the molecule COc1ccc(S(=O)(=O)N(C)C[C@H]2O[C@@H](n3cc(C#Cc4ccccc4)c4c(N)ncnc43)[C@H](O)[C@@H]2O)cc1[N+](=O)[O-]
Response given: 2.8
